Each recorded value in this set is attributed to patent US11267824B2.

# Assayed System: Recombinant full-length human IDO1 (Homo sapiens (Human), UniProt P14902)
# Sequence (P14902 whole entry): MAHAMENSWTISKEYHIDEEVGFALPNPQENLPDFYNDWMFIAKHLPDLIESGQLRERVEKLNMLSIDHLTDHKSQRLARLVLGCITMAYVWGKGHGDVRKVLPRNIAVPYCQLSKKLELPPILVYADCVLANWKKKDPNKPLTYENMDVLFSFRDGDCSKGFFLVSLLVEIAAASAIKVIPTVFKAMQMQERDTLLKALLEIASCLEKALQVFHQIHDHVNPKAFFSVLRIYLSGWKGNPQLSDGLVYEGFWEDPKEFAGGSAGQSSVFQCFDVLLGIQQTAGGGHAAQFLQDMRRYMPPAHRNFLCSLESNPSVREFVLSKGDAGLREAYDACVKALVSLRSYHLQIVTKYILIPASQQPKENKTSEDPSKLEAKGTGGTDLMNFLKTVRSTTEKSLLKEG
# Measurement Description: IDO1 enzymatic assay (IDO inhibitory activity)
# Format: biochemical
# Condition Description: 2 nM enzyme, 5 μM L-tryptophan, pH6.5, 30 min pre-incubation, NFK quantified by LCMS; mean values if measured multiple times; read-out: hIDO activity (IC50 in nM)
I'd appreciate it if you marked entries yes when IC50 is lower than 40 nM and no when it is not.

QUERY: Quick check: does C=Cc1sc2cncn2c1[C@@H](O)C1CCCCC1 [Example 68a] have IC50 under 40 nM?
RESULT: yes

QUERY: Quick check: does OC(c1cn(C2CCCC2)nn1)c1c(C2CC2)sc2cncn12 (racemic) have IC50 under 40 nM?
RESULT: no

QUERY: Quick check: does Cc1sc2cncn2c1C(O)C#Cc1ccccc1 (racemic) have IC50 under 40 nM?
RESULT: no

QUERY: Quick check: does OC(Cc1ccccc1)c1c(C2CC2)sc2cncn12 (racemic) have IC50 under 40 nM?
RESULT: no

QUERY: Quick check: does CC1(C)CC[C@H]([C@H](O)c2c(C3CC3)sc3cncn23)C1 [Example 47b] have IC50 under 40 nM?
RESULT: yes

QUERY: Quick check: does O[C@@H](CC1CCCCC1)c1c(C2CC2)sc2cncn12 have IC50 under 40 nM?
RESULT: yes

QUERY: Quick check: does CCCc1sc2cncn2c1C(O)C1CCCCC1 (racemic) have IC50 under 40 nM?
RESULT: no
